# measurementTarget: UniProt:Q9UQD0
# Sequence (Q9UQD0 whole entry, looked up): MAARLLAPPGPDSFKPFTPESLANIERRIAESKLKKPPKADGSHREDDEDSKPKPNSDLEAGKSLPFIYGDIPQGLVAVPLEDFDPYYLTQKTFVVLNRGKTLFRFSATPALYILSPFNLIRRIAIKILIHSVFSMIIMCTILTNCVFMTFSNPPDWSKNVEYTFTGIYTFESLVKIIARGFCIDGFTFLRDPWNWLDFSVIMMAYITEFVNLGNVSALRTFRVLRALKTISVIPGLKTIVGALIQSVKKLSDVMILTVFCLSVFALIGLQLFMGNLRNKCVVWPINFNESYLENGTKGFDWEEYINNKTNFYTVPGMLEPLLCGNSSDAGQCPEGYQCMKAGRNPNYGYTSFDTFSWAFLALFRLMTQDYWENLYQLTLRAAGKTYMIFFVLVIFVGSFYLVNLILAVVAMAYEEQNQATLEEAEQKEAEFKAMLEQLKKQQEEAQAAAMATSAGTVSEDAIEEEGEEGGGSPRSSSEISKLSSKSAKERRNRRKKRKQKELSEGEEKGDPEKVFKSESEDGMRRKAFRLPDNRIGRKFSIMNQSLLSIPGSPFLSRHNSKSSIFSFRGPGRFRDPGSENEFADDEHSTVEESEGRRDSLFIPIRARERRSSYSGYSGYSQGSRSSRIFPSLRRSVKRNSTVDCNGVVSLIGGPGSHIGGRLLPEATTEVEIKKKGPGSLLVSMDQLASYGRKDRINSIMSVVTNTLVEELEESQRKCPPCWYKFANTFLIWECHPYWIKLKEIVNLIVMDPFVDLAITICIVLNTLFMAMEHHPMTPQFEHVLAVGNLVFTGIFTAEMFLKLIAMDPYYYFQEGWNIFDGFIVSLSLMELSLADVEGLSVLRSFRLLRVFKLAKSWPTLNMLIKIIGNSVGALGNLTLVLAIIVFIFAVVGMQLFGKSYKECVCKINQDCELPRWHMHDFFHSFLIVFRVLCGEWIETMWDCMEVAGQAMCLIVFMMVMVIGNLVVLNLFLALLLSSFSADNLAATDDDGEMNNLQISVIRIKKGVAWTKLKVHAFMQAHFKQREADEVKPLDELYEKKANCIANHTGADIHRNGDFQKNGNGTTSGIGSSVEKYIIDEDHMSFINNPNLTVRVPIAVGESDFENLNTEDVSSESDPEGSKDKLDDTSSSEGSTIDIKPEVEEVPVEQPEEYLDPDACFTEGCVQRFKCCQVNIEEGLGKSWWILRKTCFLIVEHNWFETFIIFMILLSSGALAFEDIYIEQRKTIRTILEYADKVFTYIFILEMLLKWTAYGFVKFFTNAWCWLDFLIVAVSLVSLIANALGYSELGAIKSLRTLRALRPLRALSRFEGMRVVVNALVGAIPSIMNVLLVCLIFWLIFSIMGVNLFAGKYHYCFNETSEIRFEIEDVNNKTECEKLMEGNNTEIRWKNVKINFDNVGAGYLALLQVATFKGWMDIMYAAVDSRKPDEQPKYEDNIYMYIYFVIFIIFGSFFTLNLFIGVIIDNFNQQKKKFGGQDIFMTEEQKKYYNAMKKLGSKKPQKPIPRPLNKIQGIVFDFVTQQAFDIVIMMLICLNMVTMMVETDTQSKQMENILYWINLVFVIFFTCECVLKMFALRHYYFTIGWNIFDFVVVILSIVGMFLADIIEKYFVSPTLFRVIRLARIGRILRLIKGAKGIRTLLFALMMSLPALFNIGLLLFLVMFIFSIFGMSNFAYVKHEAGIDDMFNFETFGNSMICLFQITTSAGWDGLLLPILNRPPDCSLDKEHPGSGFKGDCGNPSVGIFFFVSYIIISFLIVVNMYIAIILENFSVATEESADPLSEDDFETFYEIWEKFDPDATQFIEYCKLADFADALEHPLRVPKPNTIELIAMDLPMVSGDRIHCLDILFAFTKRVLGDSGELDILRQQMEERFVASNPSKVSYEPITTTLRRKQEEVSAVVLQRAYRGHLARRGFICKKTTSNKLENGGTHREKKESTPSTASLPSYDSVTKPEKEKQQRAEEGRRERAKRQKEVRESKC
# Sequence (Q07699 whole entry partner, looked up): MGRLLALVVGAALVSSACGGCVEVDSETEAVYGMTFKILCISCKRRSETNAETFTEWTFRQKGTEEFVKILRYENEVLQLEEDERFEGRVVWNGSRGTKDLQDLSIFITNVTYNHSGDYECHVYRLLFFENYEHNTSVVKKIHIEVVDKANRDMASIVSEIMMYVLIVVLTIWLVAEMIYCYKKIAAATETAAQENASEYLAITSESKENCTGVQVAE
# assayProtocol: Sodium Influx Assay (Flux), NaV1.6;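 further: Tetracycline-induced cells, compounds applied for one hour at room temperature with modulators holding channels open, IC50 from percent inhibition of sodium influx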
# Assay type: cell-based
# runParameters: Trex HEK293 cells, ANG2 dye, inactivated state
pIC50: −log10 of the molar value. Structures can show the parent of a compound that is named as a salt.
experimentalEndpoint: pIC50

These solved cases illustrate the format of a correct answer.
>>> observedvalue("O=S(=O)(Nc1cscn1)c1cc(Cl)c(NCc2ccccc2CCN2CCC2)cc1F [Example 261, formate]")
6.84
>>> observedvalue("Cc1c(NCc2ccccc2CN2CCC2(C)C)cc(F)c(S(=O)(=O)Nc2cscn2)c1F [Example 305, 2,2,2-trifluoroacetate]")
7.24
>>> observedvalue("O=S(=O)(Nc1nccs1)c1cc(Cl)c(NC2(c3cccc(F)c3)CCC2)cc1F")
6.27
>>> observedvalue("C[C@H](Oc1cc(F)c(S(=O)(=O)Nc2cscn2)cc1Cl)c1cccc(F)c1")
5.50
>>> observedvalue("COC(C)(C)C1CN(Cc2ccccc2CNc2cc(F)c(S(=O)(=O)Nc3cscn3)c(F)c2)C1 [Example 214, 2,2,2-trifluoroacetate]")
6.49
>>> observedvalue("O=S(=O)(Nc1nccs1)c1ccc(NC(c2ccccc2)C2CC2)c(Cl)c1 (stereo not shown)")
6.43
>>> observedvalue("CC(C)(C)NCc1cccc(F)c1CNc1cc(F)c(S(=O)(=O)Nc2cscn2)c(F)c1 [Example 178, formate]")
6.58
>>> observedvalue("CC[C@H](Nc1cc(F)c(S(=O)(=O)Nc2ccncn2)c(F)c1)c1cc(F)ccc1Cl")
6.58

P: C[C@H](Nc1cc(F)c(S(=O)(=O)Nc2nccs2)cc1Cl)c1ccccc1Cl
Q: O=S(=O)(Nc1cscn1)c1cc(Cl)c(NCc2c(F)ccc3cn[nH]c23)cc1F [Example 334, formate]
R: C[C@H](Nc1cc(F)c(S(=O)(=O)Nc2cscn2)cc1Cl)c1cc(C2CC2)ccc1F
S: CC(C)C[C@@H](Nc1cc(F)c(S(=O)(=O)Nc2nccs2)cc1Cl)c1ccccc1
T: C[C@H](Nc1cc(F)c(S(=O)(=O)Nc2ccncn2)c(F)c1)c1cc(F)ccc1F [Example 208, 2,2,2-trifluoroacetate]
Exam item: list the entries in increasing order of pIC50. Answer format: list of labels, ordered as asked.
R, S, T, P, Q

1: CCC(Nc1cc(F)c(S(=O)(=O)Nc2nccs2)cc1Cl)c1ccncc1 (stereo not shown)
2: C[C@H](Oc1cc(F)c(S(=O)(=O)Nc2nccs2)cc1Cl)c1ccccc1
3: CC1(F)CN(Cc2cccc(F)c2CNc2cc(F)c(S(=O)(=O)Nc3ccon3)c(F)c2)C1 [Example 337, formate]
Ordering criterion: pIC50; begin with the maximum. # output: labels, in the requested order
3, 2, 1
(3: 6.58, 2: 5.86, 1: 5.48)

====

# measurementTarget: NaV1.1 (Homo sapiens (Human))
# assayProtocol: Electrophysiological Assay (EP), patch voltage clamp, NaV1.1;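 further: sodium current block measured at ambient temperature, holding at fully inactivating potential, 20 ms repolarization to −150 mV before test pulse, versus 0.5% DMSO control currents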
# Assay type: cell-based
# runParameters: HEK-293 cells, whole-cell patch clamp
experimentalEndpoint: IC50 (µM)

Past entries and their recorded results:
>>> observedvalue("C[C@H](Oc1cc(F)c(S(=O)(=O)Nc2nccs2)cc1Cl)c1ccccc1F")
9.89
>>> observedvalue("O=S(=O)(Nc1nccs1)c1cc(Cl)c(OCc2ccccc2F)cc1F")
10
>>> observedvalue("CCC(Nc1ccc(S(=O)(=O)Nc2nccs2)cc1Cl)c1ccccn1 (centres unmarked)")
10
>>> observedvalue("O=S(=O)(Nc1nccs1)c1cc(Cl)c(NC2(c3ccccc3)CCC2)cc1F")
3.6
>>> observedvalue("O=S(=O)(Nc1cscn1)c1cc(Cl)c(NCc2ccccc2CN2CCC2)cc1F [Example 19, 2,2,2-trifluoroacetate]")
10

P: O=S(=O)(Nc1cscn1)c1cc(Cl)c(NCc2cccc3ccncc23)cc1F [Example 96, 2,2,2-trifluoroacetate]
Q: C[C@H](Nc1ccc(S(=O)(=O)Nc2nccs2)cc1Cl)c1ccccc1F
R: C[C@H](Oc1cc(F)c(S(=O)(=O)Nc2nccs2)cc1Cl)c1ccccc1Cl
Arrange by IC50, high to low. Ranked list of labels, please, in the requested order.
P, R, Q
